# measurement.target: Vitamin D3 receptor (Homo sapiens) (UniProt P11473)
# Sequence (P11473 whole entry): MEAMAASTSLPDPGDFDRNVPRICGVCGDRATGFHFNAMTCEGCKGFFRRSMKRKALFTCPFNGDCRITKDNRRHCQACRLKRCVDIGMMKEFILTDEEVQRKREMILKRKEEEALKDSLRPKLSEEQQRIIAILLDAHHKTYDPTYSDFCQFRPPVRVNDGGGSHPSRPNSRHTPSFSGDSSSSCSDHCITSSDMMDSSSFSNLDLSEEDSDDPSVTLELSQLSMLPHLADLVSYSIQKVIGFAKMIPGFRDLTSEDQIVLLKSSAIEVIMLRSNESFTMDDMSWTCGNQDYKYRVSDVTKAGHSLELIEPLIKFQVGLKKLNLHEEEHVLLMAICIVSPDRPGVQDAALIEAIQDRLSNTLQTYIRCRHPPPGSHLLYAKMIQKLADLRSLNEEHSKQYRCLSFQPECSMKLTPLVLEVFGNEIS
# experiment: Agonist activity at vitamin D receptor (unknown origin) expressed in HEK293 cells co-expressing pCMX-RXRalpha and pCMX-beta-galactosidase assessed as induction of receptor transactivation incubated for 16 to 24 hrs by luciferase reporter gene assay relative to 3-keto-LCA
# Type: cell-based
Calls of active or inactive are those of the source. No cut-off for these calls is given here.
Hello, when you answer, please use one of the following outcomes: t (active), f (inactive)

Example cases with answers are listed next.
# sample.smiles, measurement.target, label.value
rows = [
    ("C[C@]12CCC(=O)C[C@H]1CC[C@@H]1[C@@H]2CC[C@@]2(C)[C@H]1CC[C@@]21C[C@H]1CCC(=O)O", "Vitamin D3 receptor (Homo sapiens) (UniProt P11473)", "f"),
    ("C[C@]12CCC(=O)C[C@H]1CC[C@@H]1[C@@H]2CC[C@@]2(C)[C@H]1C[C@H]1C[C@H](CCC(=O)O)[C@]12O", "Vitamin D3 receptor (Homo sapiens) (UniProt P11473)", "f"),
    ("CC(C)(O)CCC[C@H]1C[C@@H]2C[C@H]3[C@@H]4CCc5cc(O)ccc5[C@H]4CC[C@]3(C)[C@@]21O", "Vitamin D3 receptor (Homo sapiens) (UniProt P11473)", "t"),
    ("CC(C)(O)CCC[C@H]1C[C@@]12CC[C@H]1[C@@H]3CCc4cc(O)ccc4[C@H]3CC[C@@]12C", "Vitamin D3 receptor (Homo sapiens) (UniProt P11473)", "t"),
    ("C[C@]12CCC(=O)C[C@H]1CC[C@@H]1[C@@H]2CC[C@@]2(C)[C@H]1C[C@H]1C[C@@H](CCC(=O)O)[C@]12O", "Vitamin D3 receptor (Homo sapiens) (UniProt P11473)", "f"),
]

Called result for C[C@]12CCC(=O)C[C@H]1CC[C@@H]1[C@@H]2CC[C@@]2(C)[C@H]1CC[C@@]21C[C@@H]1CCC(=O)O
f

Dear all, I need the recorded test outcome for CC(C)(O)CCC[C@@H]1C[C@@]12CC[C@H]1[C@@H]3CCc4cc(O)ccc4[C@H]3CC[C@@]12C , thank you.
t

Record request — test call for CC(C)(O)CCC[C@@H]1C[C@@H]2C[C@H]3[C@@H]4CCc5cc(O)ccc5[C@H]4CC[C@]3(C)[C@]12O
t
